Source listed as patent US20210403591A1.

- system_name: T1, recombinant mouse TfR-1, His-tagged (Sino Biological 50741-M07H) (mouse, UniProt Q62351 89-763)
- T1 construct: bought; His-tagged; also called mTfR1; mTfR-1
- experimental_details: SPR, His-captured TfR1
measurement_label: kon (M⁻¹ s⁻¹)
Numeric only. Scale: M⁻¹ s⁻¹

Consider the worked cases shown below.
Query block: kon for Clone C variant 2 VNAR-hFc (Fc fusion, not shown: a dimerising Fc or GST) ARVDQTPQTITKETGESLTINCVLRDSNCALSSTYWYRKKSGSTNEENISKGGRYVETVNSGSKSFSLRINDLTVEDSGTYRCNVLQRPSYNNYFWCDVYGDGTAVTVN ?
Result block: 14900

Query block: Fill in: kon of Clone C variant 19 VNAR-hFc (Fc fusion, not shown: a dimerising Fc or GST) ARVDQTPQTITKETGESLTINCVLRDSNCALSSTYWYRKKSGSTNEENISKGGRYVETVNSGSKSFSLRINDLTVEDSGTYRCNVVQYPRTNNYFWCDVYGDGTAVTVN is ___
Result block: 216000

Query block: Give the measured kon of Clone C variant 1 VNAR-hFc (Fc fusion, not shown: a dimerising Fc or GST) ARVDQTPQTITKETGESLTINCVLRDSNCALSSTYWYRKKSGSTNEENISKGGRYVETVNSGSKSFSLRINDLTVEDSGTYRCNVAQRPSYNNYFWCDVYGDGTAVTVN .
Result block: 106000

Please turn your attention to the following entry.
Query block: Any idea what kon was measured for Clone C variant 11 VNAR-hFc (Fc fusion, not shown: a dimerising Fc or GST) ARVDQTPQTITKETGESLTINCVLRDSNCALSSTYWYRKKSGSTNEENISKGGRYVETVNSGSKSFSLRINDLTVEDSGTYRCNVVQYPHYNNYFWCDVYGDGTAVTVN ?
Result block: 177000
